Field: IC50. System: Aminopeptidase N (Sus scrofa, UniProt P15145). Provenance: assorted publications.
Give bare numbers, in µM.

See these solved cases before continuing.
{"columns": ["molecule", "unit_tag", "result"],
 "data": [
  ["C[C@@H](NC(=O)/C=C/c1ccccc1)C(=O)Nc1nnc(-c2ccc(F)cc2)s1", "µM", 183],
  ["CC(C)CC(C(=O)NO)C(=O)NCc1cccc2ccccc12 (stereo not given)", "µM", 8.58],
  ["N[C@@H](C(=O)NCCc1ccccc1)[C@@H](O)c1ccc([N+](=O)[O-])cc1", "µM", 106],
  ["NC1(C(=O)N[C@H](Cc2c[nH]c3ccccc23)C(=O)NO)CCN(c2ncnc3[nH]ccc23)CC1", "µM", 4.16],
  ["O=C(NO)C(Cc1ccc(F)cc1)C(=O)NCc1ccc(F)cc1 (stereo not given)", "µM", 3.96],
  ["CC(C)C[C@H](NC(=O)NCc1c(F)cccc1F)C(=O)NO", "µM", 0.69]
]}

Give one value of IC50 per listed molecule.
1. CC(C)C[C@H](N)C(=O)N[C@H](Cc1ccccc1)C(=O)NC[C@H](N)[C@@H](O)c1ccc(N)cc1
2. O=C(/C=C/c1ccccc1)N[C@H](CC(=O)Nc1ccccc1Cl)C(=O)O
3. CC(C)C[C@H](NC(=O)NCc1cccc(Cl)c1)C(=O)NO

1: 6.1; 2: 263; 3: 0.35

* * *

Field: IC50. System: Aminopeptidase N (Sus scrofa, UniProt P15145). Provenance: assorted publications.
- assay_target: Aminopeptidase N (Sus scrofa, UniProt P15145)
- Sequence (P15145 whole entry): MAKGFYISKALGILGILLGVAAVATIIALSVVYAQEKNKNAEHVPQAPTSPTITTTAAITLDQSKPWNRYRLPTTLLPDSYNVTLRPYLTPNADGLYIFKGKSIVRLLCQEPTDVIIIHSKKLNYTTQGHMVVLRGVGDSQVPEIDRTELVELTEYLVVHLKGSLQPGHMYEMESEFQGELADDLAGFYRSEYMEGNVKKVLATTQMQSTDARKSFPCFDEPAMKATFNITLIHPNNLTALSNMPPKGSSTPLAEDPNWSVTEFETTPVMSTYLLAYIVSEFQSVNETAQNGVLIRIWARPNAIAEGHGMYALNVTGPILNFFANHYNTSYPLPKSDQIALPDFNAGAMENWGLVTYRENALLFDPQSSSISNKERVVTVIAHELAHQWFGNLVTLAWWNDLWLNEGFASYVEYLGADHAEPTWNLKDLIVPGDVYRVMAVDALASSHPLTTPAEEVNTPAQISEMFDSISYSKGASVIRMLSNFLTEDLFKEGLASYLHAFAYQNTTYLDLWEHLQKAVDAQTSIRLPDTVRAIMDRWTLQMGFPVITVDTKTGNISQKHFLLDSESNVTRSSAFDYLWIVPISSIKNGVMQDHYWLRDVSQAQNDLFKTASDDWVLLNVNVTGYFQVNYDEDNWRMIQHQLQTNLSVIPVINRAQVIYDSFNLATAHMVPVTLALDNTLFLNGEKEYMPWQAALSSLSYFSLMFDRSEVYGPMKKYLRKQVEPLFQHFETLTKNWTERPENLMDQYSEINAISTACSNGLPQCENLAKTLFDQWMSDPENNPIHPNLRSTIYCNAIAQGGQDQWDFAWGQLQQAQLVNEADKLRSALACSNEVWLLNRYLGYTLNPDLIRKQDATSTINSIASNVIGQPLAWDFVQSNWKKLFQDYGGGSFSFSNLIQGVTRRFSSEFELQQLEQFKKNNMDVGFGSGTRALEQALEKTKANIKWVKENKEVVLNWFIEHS
Numbers only, in µM.

See these solved cases before continuing.
{"columns": ["compound", "endpoint_name", "result"],
 "data": [
  ["N[C@@H](CNC(=O)[C@@H](N)CO)Cc1ccccc1", "IC50", 33.7],
  ["CC(C)[C@H](N)C(=O)N[C@H]1CC(=O)N(CC(=O)NO)C1=O", "IC50", 1],
  ["COC(=O)[C@H](Cc1ccccc1)NC(=O)CN1C(=O)CC[C@H](NC(=O)c2cc(OC)c(OC)c(OC)c2)C1=O", "IC50", 11],
  ["CC(C)[C@H](NC(=O)[C@H](N)[C@@H](O)c1ccc([N+](=O)[O-])cc1)C(=O)O", "IC50", 160],
  ["Cc1nc2ccccc2n(CC(=O)NNC(=O)Cc2ccccc2)c1=O", "IC50", 333]
]}

Give one value of IC50 per listed compound.
1. CCCCCCNC(=O)C[C@@H](NC(=O)/C=C/c1ccccc1)C(=O)NO
2. O=C(NO)C(Cc1ccccc1)C(=O)NCc1cccc(F)c1 (stereo not given)

18.1
2.33
